B1: SLC6A17 (parent)
chain: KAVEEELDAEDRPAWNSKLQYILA

variants of: B1; experiment: protein stability index of a GFP-peptide fusion (GPS, HEK-293T) (PSI 1-6); higher = more stable; settings: c terminus: a fixed tail appended;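 note: lentivirally expressed fusions sorted by FACS into six bins by GFP to DsRed ratio, PSI derived from sequencing read proportions per bin multiplied by bin number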
Recorded endpoint: protein stability index
No unit in the answer, please; the number alone is enough.

Input line: Identify measured protein stability index corresponding to S17D
Output line: 3.17

Input line: Identify measured protein stability index corresponding to A2I
Output line: 2.19

Input line: Identify measured protein stability index corresponding to A9F
Output line: 1.95

Input line: Identify measured protein stability index corresponding to D8H
Output line: 2.55

Input line: Identify measured protein stability index corresponding to Q20A
Output line: 2.06

Input line: Identify measured protein stability index corresponding to P13Y
Output line: 2.65

Input line: Identify measured protein stability index corresponding to W15T
Output line: 3.46

Input line: Identify measured protein stability index corresponding to A14K
Output line: 2.62

Input line: Identify measured protein stability index corresponding to Q20W
Output line: 1.56

Input line: Identify measured protein stability index corresponding to K1H
Output line: 2.83

Input line: Identify measured protein stability index corresponding to K1M
Output line: 2.77

Input line: Identify measured protein stability index corresponding to P13R
Output line: 2.44

Input line: Identify measured protein stability index corresponding to D11N
Output line: 2.28

Input line: Identify measured protein stability index corresponding to D11L
Output line: 1.79

Input line: Identify measured protein stability index corresponding to V3Y
Output line: 2.2

Input line: Identify measured protein stability index corresponding to L7D
Output line: 3.48

Input line: Identify measured protein stability index corresponding to A9K
Output line: 3.15

Input line: Identify measured protein stability index corresponding to K1Y
Output line: 2.05

Input line: Identify measured protein stability index corresponding to V3C
Output line: 2.77

Input line: Identify measured protein stability index corresponding to D8E
Output line: 2.64

Input line: Identify measured protein stability index corresponding to P13A
Output line: 1.54

Input line: Identify measured protein stability index corresponding to S17M
Output line: 2.33

Input line: Identify measured protein stability index corresponding to K18D
Output line: 4

Input line: Identify measured protein stability index corresponding to V3E
Output line: 2.75

Input line: Identify measured protein stability index corresponding to L19F
Output line: 2.96

Input line: Identify measured protein stability index corresponding to E6D
Output line: 3.44

Input line: Identify measured protein stability index corresponding to E5D
Output line: 1.75

Input line: Identify measured protein stability index corresponding to D8F
Output line: 2.19

Input line: Identify measured protein stability index corresponding to A14S
Output line: 4.07

Input line: Identify measured protein stability index corresponding to R12E
Output line: 3.95

Input line: Identify measured protein stability index corresponding to L19I
Output line: 2.52

Input line: Identify measured protein stability index corresponding to S17V
Output line: 2.46

Input line: Identify measured protein stability index corresponding to E4Q
Output line: 2.51
